test: In vivo pharmacokinetics in male Sprague-Dawley rats; set-up: species or system rat; settings: rat, plasma, po, p.o. 3.0 mg/kg per title (dose row prints 10)
Measured quantity: Cmax (ng/mL)

- [2H]C([2H])([2H])N(C([2H])([2H])[2H])C([2H])([2H])C([2H])([2H])c1c[nH]c2cccc(O)c12 [Compound I-45]: 238

====

microsomal CLint at 2 μM overview
assay: Mouse liver microsomes stability with NADPH; details: male, mouse, microsomes
Measured quantity: microsomal CLint at 2 μM (µL/min/mg)

* [2H]C([2H])([2H])N(C([2H])([2H])[2H])C([2H])([2H])C([2H])([2H])c1c[nH]c2cccc(O)c12 [Compound I-45] | 14.4
* CN(C)CCc1c[nH]c2cccc(O)c12 [Psilocin, 4-hydroxy-N,N-dimethyltryptamine, reference compound] | 9.78
